# measured_target: human VPS34 (Homo sapiens (Human))
# protocol_summary: Human VPS34 enzyme assay (Adapta TR-FRET ADP detection)
# Type: biochemical
# particulars: IC50 range class
pIC50: −log10 of the molar value.
measured_parameter: pIC50

Solved entries:
{"columns": ["input_smiles", "measured_target", "result"],
 "data": [
  ["CNc1ncc(-c2ccnc(NC(C)=O)c2)cc1NS(=O)(=O)c1ccc(F)cc1F", "human VPS34 (Homo sapiens (Human))", "7.30 to 8.00"],
  ["Cc1cnc(NC(=O)C2CC2)cc1-c1cnc(Cl)c(NS(=O)(=O)c2ccc(F)cc2F)c1C", "human VPS34 (Homo sapiens (Human))", "7.30 to 8.00"]
]}

Kindly consider the entry below.
According to the records, this compound CC(=O)Nc1cc(-c2cnc(C)c(NS(=O)(=O)c3cc(C)ccc3F)c2)ccn1 displays pIC50 of > 8.00

====

# measured_target: UniProt:Q8NEB9
# protocol_summary: Human VPS34 enzyme assay (Adapta TR-FRET ADP detection)
# Format: biochemical
# particulars: IC50 range class
Some compounds, each annotated with its measured IC50.

Known results for compounds:
{"columns": ["input_smiles", "measured_parameter", "result"],
 "data": [
  ["CNc1c(Cl)ncc(-c2ccnc(Nc3ccnc(C)n3)c2)c1C", "IC50", "10 to 50 nM"],
  ["CC(=O)Nc1cc(-c2cnc(N)c(C(=O)N3CCCCC3)c2)ccn1", "IC50", "< 10 nM"],
  ["CC(=O)Nc1cc(-c2cnc(N)c(N3CCCNS3(=O)=O)c2)ccn1", "IC50", "< 10 nM"]
]}

Please find the next compound below.
compound COc1ncc(-c2ccnc(NC(C)=O)c2)cc1S(=O)(=O)Nc1cc(F)ccc1F , IC50 observed: 10 to 50 nM

====

Listed here are compounds together with their documented pIC50.
# measured_target: human VPS34 (Homo sapiens (Human), UniProt Q8NEB9)
# Sequence (Q8NEB9 whole entry): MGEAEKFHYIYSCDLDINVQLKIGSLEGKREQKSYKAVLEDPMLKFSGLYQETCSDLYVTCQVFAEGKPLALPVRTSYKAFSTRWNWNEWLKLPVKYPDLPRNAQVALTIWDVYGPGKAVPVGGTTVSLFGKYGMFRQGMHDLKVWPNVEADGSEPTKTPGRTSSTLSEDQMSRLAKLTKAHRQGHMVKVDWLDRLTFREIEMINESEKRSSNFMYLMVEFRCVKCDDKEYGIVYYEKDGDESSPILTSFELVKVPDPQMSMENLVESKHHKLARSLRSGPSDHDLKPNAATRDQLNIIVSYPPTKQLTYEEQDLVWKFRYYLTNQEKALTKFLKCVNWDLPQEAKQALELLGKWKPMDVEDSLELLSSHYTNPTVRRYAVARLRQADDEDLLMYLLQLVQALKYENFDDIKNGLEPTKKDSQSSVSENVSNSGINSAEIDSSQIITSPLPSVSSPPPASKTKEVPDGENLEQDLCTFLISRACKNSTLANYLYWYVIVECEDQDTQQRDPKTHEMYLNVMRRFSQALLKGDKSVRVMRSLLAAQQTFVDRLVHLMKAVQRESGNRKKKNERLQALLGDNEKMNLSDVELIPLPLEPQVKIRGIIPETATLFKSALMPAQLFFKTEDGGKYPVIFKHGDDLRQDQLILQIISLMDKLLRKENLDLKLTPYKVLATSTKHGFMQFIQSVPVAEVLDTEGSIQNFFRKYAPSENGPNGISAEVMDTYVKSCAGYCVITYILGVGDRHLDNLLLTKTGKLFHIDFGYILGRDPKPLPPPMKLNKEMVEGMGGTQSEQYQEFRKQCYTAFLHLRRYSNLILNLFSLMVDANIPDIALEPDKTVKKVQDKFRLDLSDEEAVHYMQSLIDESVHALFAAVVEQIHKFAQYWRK
# protocol_summary: Human VPS34 enzyme assay (Adapta TR-FRET ADP detection)
# Format: biochemical
# particulars: IC50 range class
pIC50: −log10 of the molar value.

Examples from the recorded data:
{"columns": ["input_smiles", "pIC50"],
 "data": [
  ["CNC(=O)c1cc(-c2ccnc(NC(C)=O)c2)cnc1N", "7.30 to 8.00"],
  ["CC(=O)Nc1cc(-c2cncc(N(CCO)S(=O)(=O)c3ccc(F)cc3F)c2)ccn1", "< 7.00"],
  ["CCOC(=O)Nc1cc(-c2cnc(C)c(NS(=O)(=O)c3ccc(Cl)cc3F)c2)ccn1", "> 8.00"],
  ["CNS(=O)(=O)Nc1cc(-c2ccnc(NC(C)=O)c2)cnc1C", "7.30 to 8.00"],
  ["CC(=O)Nc1cc(-c2cncc(S(=O)(=O)N3CCCC3)c2)ccn1", "7.30 to 8.00"]
]}

Moving on to the next compound.
According to the records, this compound CN(C)S(=O)(=O)c1cc(-c2ccnc(Nc3ncco3)c2)cnc1N displays pIC50 of > 8.00

====

IC50 values for the compounds below.
# measured_target: human VPS34 (Homo sapiens (Human))
# protocol_summary: Human VPS34 enzyme assay (Adapta TR-FRET ADP detection)
# Type: biochemical
# particulars: IC50 range class

Known IC50 results, listed for orientation:
{"columns": ["input_smiles", "IC50"],
 "data": [
  ["CC(=O)Nc1cc(-c2cnc(C)c(NS(=O)(=O)c3ccc(F)cc3)c2)ccn1", "< 10 nM"],
  ["CC(=O)Nc1cc(-c2cnc(Cl)c(N3CCCNS3(=O)=O)c2C)ccn1", "10 to 50 nM"],
  ["CC(=O)Nc1cc(-c2cnc(C)c(NS(=O)(=O)c3ccsc3)c2)ccn1", "< 10 nM"]
]}

Record summary for COc1ncc(-c2ccnc(NC(C)=O)c2)cc1S(=O)(=O)Nc1ccc(Cl)cc1Cl : reported IC50 = 10 to 50 nM

Form: compound = CC(=O)Nc1cc(-c2cnc(Cl)c(N3CCCNS3(=O)=O)c2)ccn1 ; IC50 = 10 to 50 nM

Form field IC50, entry Cc1nccc(Nc2cc(-c3cnc(Cl)c(NS(=O)(=O)c4ccc(F)cc4F)c3C)c(F)cn2)n1 : < 10 nM

Documented IC50 of CC(=O)Nc1cc(-c2cncc(S(=O)(=O)NC3CCC3)c2)ccn1 : 10 to 50 nM

// sample CC(=O)Nc1cc(-c2cncc(S(C)(=O)=O)c2)ccn1 , its IC50 was 50 to 100 nM

In plain terms, CC(=O)Nc1cc(-c2cnc(C)c(NS(=O)(=O)c3ccc(Cl)cc3Cl)c2)ccn1 has a documented IC50 of < 10 nM

====

# measured_target: human VPS34 (Homo sapiens (Human), UniProt Q8NEB9)
# protocol_summary: Human VPS34 enzyme assay (Adapta TR-FRET ADP detection)
# Format: biochemical
# particulars: IC50 range class
pIC50: −log10 of the molar value.
measured_parameter: pIC50

For reference, reported pIC50 for CC(=O)Nc1cc(-c2cnc(C)c(NS(=O)(=O)c3ccc(F)c(F)c3)c2)ccn1 stands at > 8.00

====

# measured_target: human VPS34 (Homo sapiens (Human), UniProt Q8NEB9)
# protocol_summary: Human VPS34 enzyme assay (Adapta TR-FRET ADP detection)
# Assay type: biochemical
# particulars: IC50 range class
pIC50: −log10 of the molar value.
// pIC50 lookup, one value per entry

Some compounds with recorded pIC50:
{"columns": ["compound", "measured_parameter", "result"],
 "data": [
  ["Cc1nc(Nc2cc(-c3cnc(C)c(NS(=O)(=O)N(C)C)c3)ccn2)ccc1C#N [Compound I-229]", "pIC50", "> 8.00"],
  ["CCc1ccc(S(=O)(=O)Nc2cc(-c3ccnc(NC(C)=O)c3)cnc2C)cc1 [Compound I-44]", "pIC50", "> 8.00"],
  ["CC(=O)Nc1cc(-c2cnc(C)c(NS(=O)(=O)c3c(Cl)cccc3Cl)c2)ccn1 [Compound I-463]", "pIC50", "> 8.00"]
]}

Recorded pIC50 (compound CC(=O)Nc1cc(-c2cnc(N(C)C)c(S(=O)(=O)Nc3ccc(F)cc3F)c2)ccn1 [Compound I-491] ): 7.30 to 8.00

====

Entries and their measured IC50 follow.
# measured_target: UniProtKB Q8NEB9
# protocol_summary: Human VPS34 enzyme assay (Adapta TR-FRET ADP detection)
# Format: biochemical
# particulars: IC50 range class

{"columns": ["molecule", "IC50"],
 "data": [
  ["Cc1c(-c2ccnc(Nc3ccnc(C4CC4)n3)c2)cnc(Cl)c1NS(=O)(=O)N(C)C [Compound I-435]", "< 0.01 µM"],
  ["CC(=O)Nc1cc(-c2cnc(C)c(NS(=O)(=O)c3ccc(C(F)(F)F)cc3)c2)ccn1 [Compound I-90]", "< 0.01 µM"]
]}

# context switch: different molecule, same IC50
Looking up CC(=O)Nc1cc(-c2cnc(C)c(NS(=O)(=O)c3cc(Cl)ccc3Cl)c2)ccn1 [Compound I-111] , I found its IC50 recorded as < 0.01 µM

====

Measured IC50 values are reported for all entries that follow.
# measured_target: UniProtKB Q8NEB9
# protocol_summary: Human VPS34 enzyme assay (Adapta TR-FRET ADP detection)
# Format: biochemical
# particulars: IC50 range class

See these solved cases before continuing.
{"columns": ["compound", "IC50"],
 "data": [
  ["CC(=O)Nc1cc(-c2cnc3cn[nH]c3c2)ccn1 [Compound I-116]", "> 100 nM"],
  ["COc1ncc(-c2ccnc(NC(C)=O)c2)cc1S(=O)(=O)NC12CC(C1)C2 [Compound I-470]", "10 to 50 nM"],
  ["CC(=O)Nc1cc(-c2cncc(S(=O)(=O)NC34CC(C3)C4)c2)ccn1 [Compound I-190]", "10 to 50 nM"]
]}

For this compound ( CC(=O)Nc1cc(-c2cncc(S(=O)(=O)NC(C)(C)C)c2C)ccn1 [Compound I-462] ), measured IC50 is > 100 nM

IC50 reported for this compound CC(=O)Nc1cc(-c2cnc(C)c(NC(C)=O)c2)ccn1 [Compound I-193] : 50 to 100 nM

# IC50 (compound: CC(=O)Nc1cc(-c2cnc(C)c(N3CCNS3(=O)=O)c2)ccn1 [Compound I-352] ) is 50 to 100 nM

compound CC(=O)Nc1cc(-c2cnc(N(C)C)c(C(=O)N(C)c3ccc(F)cc3F)c2)ccn1 [Compound I-174] , IC50 observed: < 10 nM

Recorded IC50 (compound CC(=O)Nc1cc(-c2cnc3c(c2)N(CC2CC2)S(=O)(=O)N3)ccn1 [Compound I-29] ): 10 to 50 nM

Reported IC50 of CC(=O)Nc1cc(-c2cnc3ccn(S(C)(=O)=O)c3c2)ccn1 [Compound I-33] : 10 to 50 nM

IC50 in this record for CCN(CC)C(=O)c1cc(-c2ccnc(Nc3ccnc(C)n3)c2)cnc1C [Compound I-302] : 10 to 50 nM
